# Experimental Target: CHO-CHOP luciferase reporter, UPR activation, luminescence
# Protocol Details: CHOP reporter induction, apoptotic UPR branch – CHO-CHOP cells, luciferase luminescence, confirmation (AID 489024);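 note: compounds added alone to reporter cells with no tunicamycin stress co-treatment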
The source made the active and inactive calls.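 Rule for the calls: active = compounds whose mean EC50, the dose giving half the maximal reporter activation, is at or below a set limit; inactive = the rest.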
Classes used: active, inactive

- Compound: "CCOc1cc(/C=C2/C(=N)N3C=CSC3=NC2=O)ccc1OCCCOc1ccccc1C"
  Experimental Target: "CHO-CHOP luciferase reporter, UPR activation, luminescence"
  Group Label: "inactive"
- Compound: "CC1=C(CC/C(C)=N/NC(N)=S)C(C)(C)CCC1"
  Experimental Target: "CHO-CHOP luciferase reporter, UPR activation, luminescence"
  Group Label: "active"
- Compound: "Cn1nc([N+](=O)[O-])c(C(C#N)c2ccccn2)c(Cl)c1=O (stereo not given)"
  Experimental Target: "CHO-CHOP luciferase reporter, UPR activation, luminescence"
  Group Label: "inactive"
- Compound: "COc1ccc(C(C[N+](=O)[O-])n2nc(C)cc2C)cc1 (stereo not given)"
  Experimental Target: "CHO-CHOP luciferase reporter, UPR activation, luminescence"
  Group Label: "active"
- Compound: "CC1(C)CC(=O)C(=Cc2cn(-c3ccccc3)nc2-c2ccccc2)C(=O)C1"
  Experimental Target: "CHO-CHOP luciferase reporter, UPR activation, luminescence"
  Group Label: "inactive"
- Compound: "Oc1ccc(/C=N/Nc2ncnc3c2ncn3Cc2ccccc2)cc1O"
  Experimental Target: "CHO-CHOP luciferase reporter, UPR activation, luminescence"
  Group Label: "active"
- Compound: "CCOC(=O)c1c2ccc(OCC(=O)N/N=C/c3ccc(C)cc3)cc2n2ccccc12"
  Experimental Target: "CHO-CHOP luciferase reporter, UPR activation, luminescence"
  Group Label: "inactive"
- Compound: "Cc1ccc(-c2nc(N/N=C/c3cccc([N+](=O)[O-])c3)c3ccccc3n2)cc1"
  Experimental Target: "CHO-CHOP luciferase reporter, UPR activation, luminescence"
  Group Label: "inactive"
- Compound: "CCOc1ccc2c(c1)C(=NNC(=O)c1ccncc1)c1cc(OCC)ccc1-2"
  Experimental Target: "CHO-CHOP luciferase reporter, UPR activation, luminescence"
  Group Label: "active"
- Compound: "O=C(Nc1nc(-c2ccccn2)cs1)c1cc(Cl)ccc1[N+](=O)[O-]"
  Experimental Target: "CHO-CHOP luciferase reporter, UPR activation, luminescence"
  Group Label: "active"
- Compound: "Oc1ccc(CN2CCc3ccccc3C2)c2cccnc12"
  Experimental Target: "CHO-CHOP luciferase reporter, UPR activation, luminescence"
  Group Label: "active"
- Compound: "Oc1c(CN2CCN(c3ccc(F)cc3)CC2)cc(Cl)c2cccnc12"
  Experimental Target: "CHO-CHOP luciferase reporter, UPR activation, luminescence"
  Group Label: "active"
- Compound: "O=C1C(Cl)=C(NC(=O)c2ccccc2)C(=O)C(Cl)=C1NC(=O)c1ccccc1"
  Experimental Target: "CHO-CHOP luciferase reporter, UPR activation, luminescence"
  Group Label: "inactive"
- Compound: "OCCNc1nc(Nc2ccc(Cl)c(Cl)c2)nc2ccccc12"
  Experimental Target: "CHO-CHOP luciferase reporter, UPR activation, luminescence"
  Group Label: "active"
- Compound: "CC(=O)Oc1ccc(OC(C)=O)c(SCCCCCN2CCOCC2)c1"
  Experimental Target: "CHO-CHOP luciferase reporter, UPR activation, luminescence"
  Group Label: "active"
- Compound: "CCCCn1c(/C=N/Nc2nc3ccccc3[nH]2)nc2ccccc21"
  Experimental Target: "CHO-CHOP luciferase reporter, UPR activation, luminescence"
  Group Label: "active"
- Compound: "CN1C(=O)/C(=C/c2cccn2-c2ccc3ccccc3c2)C(=O)NC1=S"
  Experimental Target: "CHO-CHOP luciferase reporter, UPR activation, luminescence"
  Group Label: "active"
- Compound: "Cc1nc([N+](=O)[O-])c(Br)n1CC(=O)c1ccc2ccccc2c1"
  Experimental Target: "CHO-CHOP luciferase reporter, UPR activation, luminescence"
  Group Label: "inactive"
- Compound: "Oc1c(CN2CCCCC2)cc(Br)c2cccnc12"
  Experimental Target: "CHO-CHOP luciferase reporter, UPR activation, luminescence"
  Group Label: "active"
- Compound: "CC1=NOC(=O)/C1=C/c1ccc(-c2ccc(Cl)cc2)o1"
  Experimental Target: "CHO-CHOP luciferase reporter, UPR activation, luminescence"
  Group Label: "active"
- Compound: "COc1ccc2c(c1OC)C(=O)OC2Nc1nc(-c2ccccc2)cs1 (stereo not given)"
  Experimental Target: "CHO-CHOP luciferase reporter, UPR activation, luminescence"
  Group Label: "inactive"
- Compound: "S=C(Nc1ccccn1)c1ccccn1"
  Experimental Target: "CHO-CHOP luciferase reporter, UPR activation, luminescence"
  Group Label: "active"
- Compound: "O=C1NC(=O)N(Cc2ccccc2Cl)C(=O)/C1=C/c1cccs1"
  Experimental Target: "CHO-CHOP luciferase reporter, UPR activation, luminescence"
  Group Label: "active"
- Compound: "CCN(CC)S(=O)(=O)c1cc(NC(=O)Cn2ncc(Cl)c(Cl)c2=O)ccc1C"
  Experimental Target: "CHO-CHOP luciferase reporter, UPR activation, luminescence"
  Group Label: "active"
- Compound: "Cc1ccc(Sc2c([N+](=O)[O-])c(=O)n(C)c3ccccc23)cc1"
  Experimental Target: "CHO-CHOP luciferase reporter, UPR activation, luminescence"
  Group Label: "inactive"
- Compound: "COc1ccc(C(=O)Nc2ccccc2C(=O)N/N=C/c2ccccn2)cc1OC"
  Experimental Target: "CHO-CHOP luciferase reporter, UPR activation, luminescence"
  Group Label: "active"
- Compound: "Cc1ccc(CN2CCN(/N=C/c3ccc(O)c(O)c3)CC2)cc1"
  Experimental Target: "CHO-CHOP luciferase reporter, UPR activation, luminescence"
  Group Label: "active"
- Compound: "Cc1ccc(C(=O)NC(C#N)=C(Cl)Cl)cc1"
  Experimental Target: "CHO-CHOP luciferase reporter, UPR activation, luminescence"
  Group Label: "inactive"
- Compound: "Cc1cc(NC(=O)CCS(=O)(=O)c2nc(-c3ccccc3)cc(C(F)(F)F)n2)no1"
  Experimental Target: "CHO-CHOP luciferase reporter, UPR activation, luminescence"
  Group Label: "active"
- Compound: "Cc1cc(C(=O)Cn2ncc(Cl)c(Cl)c2=O)c(C)n1CC(F)(F)F"
  Experimental Target: "CHO-CHOP luciferase reporter, UPR activation, luminescence"
  Group Label: "active"
